Answer each item with its documented IC50.
- Assayed System: Pyruvate dehydrogenase kinase (Rattus norvegicus, UniProt Q63065+A6IPZ9+Q64536+O54937)
- Experiment: Inhibitory activity tested against Pyruvate Dehydrogenase Kinase (PDHK) receptor from rats.
- Type: protein assay
Please make sure the unit comes right after the number.

Worked set:
GET /values?readout=IC50&item= C[C@](O)(C(=O)NC1C2CC3CC(C2)CC1C3)C(F)(F)F (stereo not given in full)
11 µM

GET /values?readout=IC50&item= `C[C@@](O)(C(=O)N1CCN(C(=O)c2cccc3ccccc23)CC1)C(F)(F)F`
5.02 µM

GET /values?readout=IC50&item= C[C@@H]1CN(C(=O)[C@@](C)(O)C(F)(F)F)CCN1C(=O)c1ccc(C(=O)c2ccccc2)cc1 (stereo in doubt; 11r)
15 µM

GET /values?readout=IC50&item= `C[C@@](O)(C(=O)Nc1ccccc1Cl)C(F)(F)F`
0.3 µM

Shift focus to the following entry.
GET /values?readout=IC50&item= `C[C@@H]1CN(C(=O)[C@@](C)(O)C(F)(F)F)[C@@H](C)CN1C(=O)c1ccc(C(=O)c2ccccc2)cc1`
0.0198 µM

---

- Assayed System: Pyruvate dehydrogenase kinase (Rattus norvegicus, UniProt Q63065+A6IPZ9+Q64536+O54937)
- Experiment: Inhibitory activity tested against Pyruvate Dehydrogenase Kinase (PDHK) receptor from rats.
- Format: protein assay
Attribute Measured: IC50 (nM)
Give bare numbers, in nM.

GET /values?readout=IC50&item= `C[C@@](O)(C(=O)N1CCN(Cc2ccccc2)CC1)C(F)(F)F`
19900

GET /values?readout=IC50&item= `C[C@@H]1CN(C(=O)[C@@](C)(O)C(F)(F)F)CCN1C(=O)c1cccc2ccccc12`
70

GET /values?readout=IC50&item= `C[C@@](O)(C(=O)N1CCCN(C(=O)c2ccccc2)CC1)C(F)(F)F`
5620

GET /values?readout=IC50&item= `C[C@@H]1CN(C(=O)[C@@](C)(O)C(F)(F)F)[C@@H](C)CN1C(=O)OCc1ccccc1`
14.3

Shift focus to the following entry.
GET /values?readout=IC50&item= CC(Cl)C(=O)N1CCC(Cc2ccccc2)CC1 (stereo not given)
2600

---

- Assayed System: Pyruvate dehydrogenase kinase (Rattus norvegicus, UniProt Q63065+A6IPZ9+Q64536+O54937)
- Experiment: Inhibitory activity tested against Pyruvate Dehydrogenase Kinase (PDHK) receptor from rats.
- Assay type: protein assay
Attribute Measured: IC50 (µM)
Give bare numbers, in µM.

For each of the compounds below, state IC50.
1. C[C@@H]1CN(C(=O)[C@@](C)(O)C(F)(F)F)CCN1c1cc([N+](=O)[O-])ccn1
2. C[C@@H]1CN(C(=O)[C@@](C)(O)C(F)(F)F)CCN1C(=O)c1ccc(C(=O)c2ccccc2)cc1 (stereo in doubt; 11g)
3. CC(C)(O)C(=O)Nc1ccccc1Cl
4. C[C@@](O)(C(=O)N1CCCN(Cc2ccccc2)CC1)C(F)(F)F

1: 0.112; 2: 0.034; 3: 5; 4: 47

For each of the compounds below, state IC50.
1. C[C@@H]1CN(C(=O)[C@@](C)(O)C(F)(F)F)[C@@H](C)CN1Cc1ccccc1
2. C[C@@](O)(C(=O)N1CCN(/C(=N/C#N)Oc2ccccc2)CC1)C(F)(F)F
3. C[C@@](O)(C(=O)N1CCN(S(=O)(=O)c2ccccc2)CC1)C(F)(F)F
4. CC(C)(O)C(=O)NC1C2CC3CC(C2)CC1C3 (stereo not given)
5. C[C@@H]1CN(C(=O)[C@@](C)(O)C(F)(F)F)CCN1C(=O)c1ccc(C#N)cc1

0.082
6
5.56
10
0.079

---

- Tested on: Rattus norvegicus
- Experiment: In vivo %control of lactate in normal Sprague-Dawley rats after 2 hr at a dose of 30 umol/Kg
- Type: functional
Answer each item with its documented Control.
Please make sure the unit comes right after the number.

GET /values?readout=Control&item= `COc1cc(C(=O)N2CCN(C(=O)[C@@](C)(O)C(F)(F)F)C[C@H]2C)cc(OC)c1OC`
71%

For each of the compounds below, state Control.
1. C[C@@H]1CN(C(=O)[C@@](C)(O)C(F)(F)F)CCN1C(=O)c1ccc(C#N)cc1
2. C[C@@H]1CN(C(=O)[C@@](C)(O)C(F)(F)F)CCN1C(=O)c1ccc(C(=O)c2ccccc2)cc1 (stereo in doubt; 11g)

1: 60%; 2: 66%

---

- Assayed System: Pyruvate dehydrogenase kinase (Rattus norvegicus, UniProt Q63065+A6IPZ9+Q64536+O54937)
- Experiment: Inhibitory activity tested against Pyruvate Dehydrogenase Kinase (PDHK) receptor from rats.
- Assay type: protein assay
Attribute Measured: log10 of IC50 (log10 of the value in µM)
In plain terms, each number is the log10 of measured IC50 in µM.

Worked set:
GET /values?readout=log10 of IC50&item= `C[C@@](O)(C(=O)N1CCN(C(=O)c2ccccc2)CC1)C(F)(F)F`
1.50

GET /values?readout=log10 of IC50&item= `CC(C)[C@H]1CN(C(=O)c2ccc(C#N)cc2)[C@H](C)CN1C(=O)[C@@](C)(O)C(F)(F)F`
1.23

GET /values?readout=log10 of IC50&item= `C[C@@H]1CN(C(=O)[C@@](C)(O)C(F)(F)F)[C@@H](C)CN1C(=O)c1cc(Cl)cc(Cl)c1`
-2.48

GET /values?readout=log10 of IC50&item= CCC(O)(C(=O)NC1C2CC3CC(C2)CC1C3)C(F)(F)F (stereo unspecified)
1.15

GET /values?readout=log10 of IC50&item= `C[C@@H]1CN(S(=O)(=O)c2cccc3ccccc23)[C@@H](C)CN1C(=O)[C@@](C)(O)C(F)(F)F`
1.69

GET /values?readout=log10 of IC50&item= `C[C@@](O)(C(=O)N1CCN(c2ccccn2)CC1)C(F)(F)F`
0.53

GET /values?readout=log10 of IC50&item= `CC(C)(C)C(=O)N1CCC(Cc2ccccc2)CC1`
2.45

GET /values?readout=log10 of IC50&item= `C[C@@H]1CN(C(=O)[C@@](C)(O)C(F)(F)F)CCN1/C(=N/C#N)Oc1ccccc1`
-1.31

For each of the compounds below, state log10 of IC50.
1. C[C@@H]1CN(C(=O)[C@@](C)(O)C(F)(F)F)CCN1C(=O)c1cc(Cl)cc(Cl)c1
2. C/N=C(/S)N1CCC(Cc2ccccc2)CC1

1: -1.55; 2: 2.75
